Quick list: Activity per entry.
tested on: Puccinia triticina; assay: Antifungal activity against Puccinia recondita f. sp. tritici infected in wheat seedlings at 200 ppm relative to control; type: functional
Return type: number; implicit unit %.

Reference set, count: 4
CC[C@H](C)Cn1c(-c2c(F)cccc2F)c(Cl)nc(C#N)c1=O    96
CC[C@H](C)Cn1c(-c2c(F)cccc2F)c(Cl)nc(-n2nccn2)c1=O    86
CC(C)Cn1c(-c2c(F)cccc2F)c(Br)nc(-n2cccn2)c1=O    100
CC[C@H](C)Cn1c(-c2c(F)cccc2F)c(Cl)nc(-n2nc(C)cc2C)c1=O    73

Turning to the following compound.
Query :: Suppose we examine the compound "CC(C)Cn1c(-c2c(F)cccc2F)c(Cl)nc(-c2ccccn2)c1=O" ; what Activity value has been reported?
Result :: 99
